Where do these numbers come from? They come from patent US9776972B2.

Each entry below lists one item and its recorded pIC50 value.
Target: human PRMT6 (Homo sapiens, UniProt Q96LA8)
Construct: Flag-PRMT6-His; made in house; host or cells: HEK 293F cells (BacMam baculovirus)
Sequence (Q96LA8 with tags, fused parts or gaps): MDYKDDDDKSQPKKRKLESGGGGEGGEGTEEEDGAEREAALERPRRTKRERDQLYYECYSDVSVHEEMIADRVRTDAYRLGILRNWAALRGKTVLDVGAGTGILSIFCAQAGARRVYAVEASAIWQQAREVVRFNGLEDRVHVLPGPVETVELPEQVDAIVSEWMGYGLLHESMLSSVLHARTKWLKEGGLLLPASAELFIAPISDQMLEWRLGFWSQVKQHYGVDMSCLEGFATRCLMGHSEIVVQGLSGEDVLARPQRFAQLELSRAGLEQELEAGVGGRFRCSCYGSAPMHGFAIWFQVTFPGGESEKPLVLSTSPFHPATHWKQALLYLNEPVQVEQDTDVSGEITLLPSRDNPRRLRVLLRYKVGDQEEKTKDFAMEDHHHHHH
Assay: PRMT6 Biochemical Assay (3H-SAM Flashplate, peptide substrate)
Details: Biochemical IC50 PRMT6, single experiment or average of multiple experiments
From the text: S-adenosylmethionine (SAM), S-adenosylhomocysteine (SAH), bicine, Tween20, dimethylsulfoxide (DMSO), bovine skin gelatin (BSG), sodium butyrate and Tris(2-carboxyethyl)phosphine hydrochloride solution (TCEP) were purchased from Sigma-Aldrich at the highest level of purity possible. ^3H-SAM was purchase from American Radiolabeled Chemicals with a specific activity of 80 Ci/mmol. 384-well streptavidin Flashplates were purchased from PerkinElmer. […]
pIC50: −log10 of the molar value.
Measurement name: pIC50

* CNCCN(C)Cc1c[nH]nc1-c1cccc(O)c1 [Compound 26] | 7.65
* CN(CCN)Cc1n[nH]cc1-c1ccc(OC(F)(F)F)cc1 [Compound 105] | 7.26
* COc1cccc(-c2n[nH]cc2CN(C)CCN)c1 [Compound 130] | 7.20
* CNCCN(C)Cc1c[nH]nc1-c1ccc(OC2CCC(O)CC2)cc1 (stereo not drawn) [Compound 299] | 7.80
* CNCCN(C)Cc1c[nH]nc1-c1cc(Cl)c(OCC2CC2)c(Cl)c1 [Compound 282] | 8.32
* CNCCN(C)Cc1c[nH]nc1-c1ccc(Oc2ccccc2)c(C#N)c1 [Compound 234] | 8.32
* CNCCN(C)Cc1cn(CC(=O)O)nc1-c1ccc(OC(C)C)cc1 [Compound 250] | 5.37
* CNCCN(C)Cc1n[nH]cc1-c1ccc(OC(C)C)c(F)c1 [Compound 210] | 7.79
* CNCCN(C)Cc1c[nH]nc1-c1cccc(C#N)c1 [Compound 22] | 7.93
* CN(CCN)Cc1n[nH]cc1-c1ccc(C(F)(F)F)cc1 [Compound 103] | 7.77
* CN(CCN)Cc1c[nH]nc1-c1ccc(Cl)cc1F [Compound 132] | 8.00
* CNCCN(C)Cc1cn[nH]c1-c1ccc(C#N)cc1 [Compound 17] | 7.89
